Listed here are compounds together with their documented IC50.
Molecular target: AKT1 (Homo sapiens, UniProt P31749, S473D)
Sequence (P31749 118-480 S473D limits assumed): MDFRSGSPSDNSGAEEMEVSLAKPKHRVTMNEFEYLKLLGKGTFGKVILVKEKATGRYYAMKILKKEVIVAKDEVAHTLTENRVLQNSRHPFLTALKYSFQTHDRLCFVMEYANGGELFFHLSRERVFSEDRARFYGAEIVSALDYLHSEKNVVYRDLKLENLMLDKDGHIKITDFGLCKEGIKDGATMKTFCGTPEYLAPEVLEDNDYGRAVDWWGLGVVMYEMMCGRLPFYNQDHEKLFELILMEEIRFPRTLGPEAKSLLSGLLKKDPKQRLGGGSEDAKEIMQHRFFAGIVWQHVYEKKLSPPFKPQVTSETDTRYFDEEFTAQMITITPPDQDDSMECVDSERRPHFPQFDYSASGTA
Experiment: Determination of the IC50 for AKT1 (HTRF)
Conditions: AKT1 without PH domain, activated by PDK1

Known IC50 results, listed for orientation:
COMPOUND | REPORTED_VALUE
O=C(Nc1ccc2[nH]ncc2c1)O[C@H](c1ccc(Cl)c(Cl)c1)[C@@H]1CCCCN1 [Ex 38c] | 100 to 500 nM
CN1CCCCC1C(c1ccccc1)n1ccn(-c2ccc3[nH]ncc3c2)c1=O (stereo not drawn) [Ex 30] | 100 to 500 nM
CN1CCCCC1C(NC(=O)Nc1ccc2[nH]nc(CCc3ccccc3)c2c1)c1ccccc1 (stereo not drawn) [Ex 27] | 100 to 500 nM
O=C(Nc1ccc2[nH]ncc2c1)O[C@H](c1ccc(Cl)c(Cl)c1)[C@H]1CCCCN1 [Ex 37] | < 100 nM
CN1CCCCC1C(NC(=O)Nc1cc(F)c2[nH]ncc2c1)c1ccccc1 (stereo not drawn) [Ex 21] | 100 to 500 nM

// query Recall the reported IC50 of O=C(Nc1ccc2[nH]ncc2c1)OC(c1cc(Cl)cc(Cl)c1)C1CCCCN1 (stereo not drawn) [Ex 34] when tested on AKT1 (Homo sapiens, UniProt P31749, S473D).
// result < 100 nM

// query Recall the reported IC50 of CN1CCCCC1C(NC(=O)Nc1ccc2[nH]nc(-c3ccc(S(N)(=O)=O)cc3)c2c1)c1ccccc1 (stereo not drawn) [Ex 12] when tested on AKT1 (Homo sapiens, UniProt P31749, S473D).
// result < 100 nM

// query Recall the reported IC50 of CN1CCCCC1C(NC(=O)Nc1cc(F)c2[nH]nc(N)c2c1)c1ccccc1 (stereo not drawn) [Ex 20] when tested on AKT1 (Homo sapiens, UniProt P31749, S473D).
// result 100 to 500 nM

// query Recall the reported IC50 of CN1CCCCC1C(NC(=O)Nc1ccc2[nH]ncc2c1)c1cc(F)cc(Cl)c1 (stereo not drawn) [Ex 11] when tested on AKT1 (Homo sapiens, UniProt P31749, S473D).
// result < 100 nM

###

Tested on: MIA PaCa-2 cells (human pancreatic carcinoma cells)
Experiment: Proliferation of MIA PaCa-2 cells, intracellular ATP, CellTiter-Glo test
Assay type: cell-based
Conditions: 96 hours
pIC50: −log10 of the molar value.
QUANTITY_NAME: pIC50

COMPOUND | pIC50
O=C(Nc1ccc2[nH]ncc2c1)OC(c1cc(Cl)cc(Cl)c1)C1CCCCN1 (centres unmarked) | 5.54

[P] O=C(Nc1ccc2[nH]ncc2c1)O[C@@H](c1cc(F)cc(Cl)c1)[C@@H]1CCCCN1
[Q] O=C(Nc1ccc2[nH]nc(-c3ccncc3)c2c1)N[C@@H](c1ccc(Cl)c(Cl)c1)[C@@H]1CCCCN1
[R] CN1CCCCC1C(NC(=O)Nc1ccc2[nH]nc(-c3ccncc3)c2c1)c1ccccc1 (centres unmarked)
// query Place the items in sequence of falling pIC50. # the answer lists labels in the order requested
// result R, P, Q

###

Tested on: MEF-IGF1 murine fibroblast cells
Assay: IGF1-dependent proliferation of MEF-IGF1 cells via incorporation of [14C]-thymidine
Assay type: cell-based
Conditions: Mus musculus, Fibroblast; [14C]-thymidine incorporation, IGF1 stimulated, 72 hours; read-out: IC50 MEF-IGF
QUANTITY_NAME: pIC50
Value format note: pIC50 is -log10 of concentration (mol/L); just state the number.

Known pIC50 results, listed for orientation:
MOLECULE | pIC50
O=C(Nc1ccc2[nH]ncc2c1)N[C@@H](c1cc(Cl)cc(Cl)c1)[C@@H]1CCCCN1 | 6.55
CN1CCCCC1C(NC(=O)Nc1ccc2[nH]nc(C#Cc3ccc(F)cc3)c2c1)c1ccccc1 (stereo not drawn) | 6.07
CN1CCCCC1C(NC(=O)Nc1ccc2[nH]nc(-c3ccncc3)c2c1)c1ccccc1 (stereo not drawn) | 5.29
O=C(Nc1ccc2[nH]ncc2c1)O[C@@H](c1cc(F)cc(Cl)c1)[C@@H]1CCCCN1 | 6.25
CN1CCCCC1C(NC(=O)Nc1ccc2[nH]nc(-c3nc4ccccc4[nH]3)c2c1)c1ccccc1 (stereo not drawn) | 5.65
O=C(Nc1ccc2[nH]ncc2c1)OC(c1cc(Cl)cc(Cl)c1)C1CCCCN1 (stereo not drawn) | 6.22
S=C(Nc1ccc2[nH]ncc2c1)N[C@@H](c1ccc(Cl)c(Cl)c1)[C@@H]1CCCCN1 | 5.90
CN1CCCCC1C(NC(=O)Nc1ccc2[nH]ncc2c1)c1cc(F)cc(Cl)c1 (stereo not drawn) | 5.53
CN1CCCCC1C(OC(=O)Nc1ccc2[nH]ncc2c1)c1cc(F)cc(Cl)c1 (stereo not drawn) | 6.11
O=C(Nc1ccc2[nH]ncc2c1)N[C@@H](c1ccc(Cl)c(Cl)c1)[C@@H]1CCCCN1 | 6.30

// query Recall the reported pIC50 of Cc1n[nH]c2ccc(NC(=O)NC(c3ccccc3)C3CCCCN3C)cc12 (stereo not drawn) when tested on MEF-IGF1 murine fibroblast cells.
// result 6.54

// query Recall the reported pIC50 of O=C(Nc1ccc2[nH]ncc2c1)N[C@@H](c1cc(F)cc(Cl)c1)[C@@H]1CCCCN1 when tested on MEF-IGF1 murine fibroblast cells.
// result 6.10

// query Recall the reported pIC50 of O=C(Nc1ccc2[nH]ncc2c1)O[C@H](c1ccc(Cl)c(Cl)c1)[C@H]1CCCCN1 when tested on MEF-IGF1 murine fibroblast cells.
// result 6.56

// query Recall the reported pIC50 of O=C(Nc1ccc2[nH]ncc2c1)O[C@@H](c1ccc(Cl)c(Cl)c1)[C@@H]1CCCCN1 [Ex 38b] when tested on MEF-IGF1 murine fibroblast cells.
// result 6.02

// query Recall the reported pIC50 of CN1CCCCC1C(NC(=O)Nc1ccc2[nH]nc(C#Cc3cccnc3)c2c1)c1ccccc1 (stereo not drawn) when tested on MEF-IGF1 murine fibroblast cells.
// result 6.44

// query Recall the reported pIC50 of CN1CCCCC1C(NC(=O)Nc1cc(F)c2[nH]ncc2c1)c1ccccc1 (stereo not drawn) when tested on MEF-IGF1 murine fibroblast cells.
// result 5.55

// query Recall the reported pIC50 of O=C(Nc1ccc2[nH]ncc2c1)O[C@@H](c1cccc(Br)c1)[C@@H]1CCCCN1 when tested on MEF-IGF1 murine fibroblast cells.
// result 6.26

###

Counter-ions that a name gives are not always drawn.
QUANTITY_NAME: melting point (°C)

COMPOUND | QUANTITY_NAME | REPORTED_VALUE
CN1CCCCC1C(NC(=O)Nc1ccc2[nH]nc(-c3cccnc3)c2c1)c1ccccc1 (stereo not drawn) (as salt: fumaric acid salt) | melting point | 210
CN1CCCCC1C(NC(=O)Nc1ccc2[nH]nc(-c3nc4ccccc4[nH]3)c2c1)c1ccccc1 (stereo not drawn) (as salt: fumaric acid salt) | melting point | 250
CN1CCCCC1C(NC(=O)Nc1ccc2[nH]nc(-c3ccc(S(N)(=O)=O)cc3)c2c1)c1ccccc1 (stereo not drawn) (as salt: fumaric acid salt) | melting point | 220
O=C(Nc1ccc2[nH]ncc2c1)OC(c1cc(Cl)cc(Cl)c1)C1CCCCN1 (stereo not drawn) (as salt: hydrochloride) | melting point | 220
CN1CCCCC1C(NC(=O)Nc1ccc2[nH]nc(C#Cc3ccccc3)c2c1)c1ccccc1 (stereo not drawn) (as salt: fumaric acid salt) | melting point | 227

###

Where a name gives a salt, the structure may show the parent alone.
QUANTITY_NAME: melting point (°C)

COMPOUND | VALUE_UNITS | melting point
O=C(Nc1ccc2[nH]nc(C#Cc3ccccc3)c2c1)N[C@@H](c1ccc(Cl)c(Cl)c1)[C@@H]1CCCCN1 (as salt: fumaric acid salt) [Ex 26] | °C | 160
S=C(Nc1ccc2[nH]ncc2c1)N[C@@H](c1ccc(Cl)c(Cl)c1)[C@@H]1CCCCN1 (as salt: fumarate) [Ex 31] | °C | 145
O=C(Nc1ccc2[nH]ncc2c1)O[C@@H](c1ccc(Cl)c(Cl)c1)[C@@H]1CCCCN1 (as salt: hydrochloride) [Ex 38b] | °C | 194

###

Counter-ions that a name gives are not always drawn.
QUANTITY_NAME: melting point (°C)

COMPOUND | VALUE_UNITS | melting point
CN1CCCCC1C(NC(=O)Nc1ccc2[nH]nc(-c3ccncc3)c2c1)c1ccccc1 (stereo not shown) (as salt: fumaric acid salt) [Ex 13] | °C | 205
CN1CCCCC1C(NC(=O)Nc1ccc2[nH]ncc2c1)c1cc(F)cc(Cl)c1 (stereo not shown) (as salt: hydrochloride) [Ex 11] | °C | 192

###

Listed here are compounds together with their documented IC50.
Biological target: AKT1 (Homo sapiens, UniProt P31749, S473D)
Test: Determination of the IC50 for AKT1 (HTRF)
Assay type: biochemical
Details: AKT1 without PH domain, activated by PDK1

Known IC50 results, listed for orientation:
COMPOUND | REPORTED_VALUE
CN(C(=O)NC(c1ccccc1)C1CCCCN1C)c1ccc2[nH]ncc2c1 (centres unmarked) [Ex 33] | 500 to 2000 nM
CCOC(=O)c1cccc(C(OC(=O)Nc2ccc3[nH]ncc3c2)[C@@H]2CCCCN2)c1 (some centres unmarked) [Ex 41] | 500 to 2000 nM
O=C(Nc1ccc2[nH]ncc2c1)O[C@H](c1cc(F)cc(Cl)c1)[C@H]1CCCCN1 [Ex 39d] | < 100 nM
CN1CCCCC1C(NC(=O)Nc1ccc2[nH]nc(NC(=O)c3ccccc3)c2c1)c1ccccc1 (centres unmarked) [Ex 28] | 100 to 500 nM
O=C(Nc1ccc2[nH]nc(C#Cc3ccccc3)c2c1)N[C@@H](c1ccc(Cl)c(Cl)c1)[C@@H]1CCCCN1 [Ex 26] | 100 to 500 nM
O=C(Nc1ccc2[nH]ncc2c1)O[C@@H](c1cccc(I)c1)[C@@H]1CCCCN1 [Ex 45] | < 100 nM

// query Find the measured IC50 of CN1CCCCC1C(NC(=O)Nc1cc(F)c2[nH]nc(NC(=O)c3ccccc3)c2c1)c1ccccc1 (centres unmarked) [Ex 19] and report it.
// result 500 to 2000 nM

// query Find the measured IC50 of S=C(Nc1ccc2[nH]ncc2c1)N[C@@H](c1ccc(Cl)c(Cl)c1)[C@@H]1CCCCN1 [Ex 31] and report it.
// result < 100 nM

src = patent US20100298377A1
